Target: Ecm22 (UniProt Q05958)
Sequence: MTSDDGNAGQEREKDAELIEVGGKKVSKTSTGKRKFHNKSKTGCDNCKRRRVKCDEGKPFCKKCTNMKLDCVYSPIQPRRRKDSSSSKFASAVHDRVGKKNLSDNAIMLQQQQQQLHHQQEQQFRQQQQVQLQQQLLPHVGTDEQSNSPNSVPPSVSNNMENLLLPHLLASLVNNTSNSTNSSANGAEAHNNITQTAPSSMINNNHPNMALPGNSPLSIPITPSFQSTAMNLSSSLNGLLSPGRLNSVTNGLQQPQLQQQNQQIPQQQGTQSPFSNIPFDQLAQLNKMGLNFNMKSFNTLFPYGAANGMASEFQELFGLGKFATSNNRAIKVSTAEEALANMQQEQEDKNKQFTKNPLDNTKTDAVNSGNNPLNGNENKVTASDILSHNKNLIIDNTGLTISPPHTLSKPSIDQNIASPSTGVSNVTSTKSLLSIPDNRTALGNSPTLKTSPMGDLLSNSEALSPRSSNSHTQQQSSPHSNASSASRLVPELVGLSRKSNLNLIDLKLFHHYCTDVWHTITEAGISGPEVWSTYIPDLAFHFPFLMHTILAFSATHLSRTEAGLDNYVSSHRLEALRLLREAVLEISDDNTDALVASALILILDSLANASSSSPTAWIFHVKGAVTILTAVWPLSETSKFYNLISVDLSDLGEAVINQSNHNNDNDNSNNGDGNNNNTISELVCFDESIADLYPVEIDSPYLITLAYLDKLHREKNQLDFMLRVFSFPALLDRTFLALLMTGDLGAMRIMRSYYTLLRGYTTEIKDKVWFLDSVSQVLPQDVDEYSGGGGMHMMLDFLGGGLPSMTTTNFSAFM
Assay: PBM E-score (8-mer binding enrichment) (E-score (-0.5 to 0.5)); higher = stronger / more preferred TF binding
Settings: protein concentration: 200 nM; construct: GST-full length
Whole data set: some 33,000 sequences, median “E-score (-0.5 to 0.5)” near -0.041, cut for the highest 2% near 0.37. The full list was thinned out, with the highest values kept by preference.
Classification scheme (PBM E-score): class 1 (below -0.04), class 2 (-0.04 to below 0.1), class 3 (0.1 or more)

Consider the worked cases shown below.
>  <chain sequence>
GATCGGGA

>  <group>
class 2

$$$$
>  <chain sequence>
ACATCGTA

>  <group>
class 3

$$$$
>  <chain sequence>
ACCCCCTC

>  <group>
class 1

$$$$
>  <chain sequence>
GCATCGAA

>  <group>
class 2

$$$$
>  <chain sequence>
ACATCGTG

>  <group>
class 2

$$$$

As a next step, examine the sequence that follows.
Ask: Lab log: "ACATGGGG" — assign PBM E-score category
Reply: class 1

* * *

Biological target: Ecm22 (UniProt Q05958)
Sequence: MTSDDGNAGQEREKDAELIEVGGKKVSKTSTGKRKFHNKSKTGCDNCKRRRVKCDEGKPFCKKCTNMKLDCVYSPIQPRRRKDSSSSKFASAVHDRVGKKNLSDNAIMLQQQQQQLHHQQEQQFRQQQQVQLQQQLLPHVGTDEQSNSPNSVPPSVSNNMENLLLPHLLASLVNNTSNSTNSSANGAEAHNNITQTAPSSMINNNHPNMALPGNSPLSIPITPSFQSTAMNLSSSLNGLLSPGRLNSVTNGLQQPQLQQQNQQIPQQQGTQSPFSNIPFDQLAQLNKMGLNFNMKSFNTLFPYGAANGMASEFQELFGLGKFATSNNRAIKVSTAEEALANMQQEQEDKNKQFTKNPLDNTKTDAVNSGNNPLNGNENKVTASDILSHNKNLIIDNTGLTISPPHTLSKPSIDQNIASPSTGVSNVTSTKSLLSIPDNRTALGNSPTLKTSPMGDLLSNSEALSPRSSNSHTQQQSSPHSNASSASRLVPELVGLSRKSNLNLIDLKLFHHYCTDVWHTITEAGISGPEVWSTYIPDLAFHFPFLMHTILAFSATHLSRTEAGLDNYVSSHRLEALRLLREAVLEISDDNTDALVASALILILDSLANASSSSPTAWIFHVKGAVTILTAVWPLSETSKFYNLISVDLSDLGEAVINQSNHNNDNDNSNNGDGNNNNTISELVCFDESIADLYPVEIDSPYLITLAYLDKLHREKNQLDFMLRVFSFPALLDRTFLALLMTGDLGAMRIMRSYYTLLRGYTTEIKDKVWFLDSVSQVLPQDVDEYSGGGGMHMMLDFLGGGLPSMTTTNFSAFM
Assay: PBM E-score (8-mer binding enrichment) (E-score (-0.5 to 0.5)); higher = stronger / more preferred TF binding
Details: protein concentration: 200 nM; construct: GST-full length
In all, about 33,000 sequences were measured (“E-score (-0.5 to 0.5)”: median about -0.041, highest 2% from about 0.37 on). The list comes from a sample in which the highest values are over-represented; it also holds close analogues and randomly drawn sequences.
Classification scheme (PBM E-score): lowest = under -0.05, middle = from -0.05 up to 0.2, highest = 0.2 and over

Consider the worked cases shown below.
>  <chain sequence>
AACCGTAT

>  <group>
highest

$$$$
>  <chain sequence>
GGCGATAC

>  <group>
middle

$$$$
>  <chain sequence>
ATATCGTG

>  <group>
middle

$$$$
>  <chain sequence>
AAACGATC

>  <group>
highest

$$$$
>  <chain sequence>
CTATCGAA

>  <group>
middle

$$$$
>  <chain sequence>
CTTTGGAC

>  <group>
lowest

$$$$
>  <chain sequence>
ACGTACCC

>  <group>
highest

$$$$
>  <chain sequence>
TAAACGCA

>  <group>
highest

$$$$

Ask: Lab log: "AACGACAC" — assign PBM E-score category
Reply: highest

Ask: Lab log: "CATACGCC" — assign PBM E-score category
Reply: middle

Ask: Lab log: "GACGACAC" — assign PBM E-score category
Reply: lowest

Ask: Lab log: "AATACGTG" — assign PBM E-score category
Reply: middle

Ask: Lab log: "CCTCGGGC" — assign PBM E-score category
Reply: middle

Ask: Lab log: "AACGAGGA" — assign PBM E-score category
Reply: highest

Ask: Lab log: "AAGCCCAG" — assign PBM E-score category
Reply: lowest

Ask: Lab log: "CCCCGTAC" — assign PBM E-score category
Reply: highest

Ask: Lab log: "GAAACAAA" — assign PBM E-score category
Reply: middle

Ask: Lab log: "ACTGGCAT" — assign PBM E-score category
Reply: lowest

Ask: Lab log: "ACGTACCG" — assign PBM E-score category
Reply: highest

* * *

For each entry below, report its PBM E-score value.
Target: Ecm22 (UniProt Q05958)
Sequence: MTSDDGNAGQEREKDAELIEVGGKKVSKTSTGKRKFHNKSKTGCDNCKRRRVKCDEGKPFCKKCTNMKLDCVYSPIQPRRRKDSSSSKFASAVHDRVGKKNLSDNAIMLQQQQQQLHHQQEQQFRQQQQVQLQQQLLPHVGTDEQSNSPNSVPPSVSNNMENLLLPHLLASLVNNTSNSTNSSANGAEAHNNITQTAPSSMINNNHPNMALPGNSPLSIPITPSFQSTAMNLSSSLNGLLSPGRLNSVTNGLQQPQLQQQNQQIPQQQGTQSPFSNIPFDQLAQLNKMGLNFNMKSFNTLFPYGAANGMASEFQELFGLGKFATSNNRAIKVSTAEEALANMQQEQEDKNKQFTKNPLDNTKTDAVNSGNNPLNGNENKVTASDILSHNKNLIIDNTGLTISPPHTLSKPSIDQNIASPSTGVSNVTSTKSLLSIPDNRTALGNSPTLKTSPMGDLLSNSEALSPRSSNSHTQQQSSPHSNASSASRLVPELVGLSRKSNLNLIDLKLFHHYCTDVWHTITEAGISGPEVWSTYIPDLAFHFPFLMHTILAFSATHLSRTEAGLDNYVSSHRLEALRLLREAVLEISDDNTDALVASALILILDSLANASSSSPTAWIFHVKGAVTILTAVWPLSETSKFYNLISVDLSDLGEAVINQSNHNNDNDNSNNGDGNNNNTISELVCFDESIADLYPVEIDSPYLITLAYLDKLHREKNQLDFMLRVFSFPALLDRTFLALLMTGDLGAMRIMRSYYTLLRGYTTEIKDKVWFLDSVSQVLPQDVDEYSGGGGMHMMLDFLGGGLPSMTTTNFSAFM
Test: PBM E-score (8-mer binding enrichment) (E-score (-0.5 to 0.5)); higher = stronger / more preferred TF binding
Details: protein concentration: 200 nM; construct: GST-full length
In all, about 33,000 sequences were measured (“E-score (-0.5 to 0.5)”: median about -0.041, highest 2% from about 0.37 on). The sample holds the highest values, similar sequences and a random draw of the others, so the mix is not that of the screen.

Here's what some known entries look like.
>  <chain sequence>
CGATACGC

>  <measured value>
0.2

$$$$
>  <chain sequence>
AGATACGC

>  <measured value>
0.196

$$$$
>  <chain sequence>
AACTGCGG

>  <measured value>
0.0437

$$$$
>  <chain sequence>
AGCGTACC

>  <measured value>
0.251

$$$$
>  <chain sequence>
ACGCTACG

>  <measured value>
0.382

$$$$
>  <chain sequence>
ATAGTACG

>  <measured value>
0.325

$$$$

Give one value of PBM E-score per listed sequence.
1. CTTCGTAA
2. CTTCGTAC
3. TAGAGCCA
4. AGTCCCAA
5. GAACGAGC
6. CACGACCA

Reply:
1: 0.413; 2: 0.477; 3: -0.288; 4: -0.193; 5: 0.483; 6: 0.0103
